Target: T1, human complement C3b protein (human, UniProt P01024 23-667; P01024 749-1663)
T1 construct: Purified plasma C3b (Complement Technology, Quidel); Depending on the assay it was captured by an anti-C3d antibody, coated, biotinylated or coupled to beads; also called human C3b; huC3b
T1 sequence (P01024 23-667 P314L, chain 1 of 2): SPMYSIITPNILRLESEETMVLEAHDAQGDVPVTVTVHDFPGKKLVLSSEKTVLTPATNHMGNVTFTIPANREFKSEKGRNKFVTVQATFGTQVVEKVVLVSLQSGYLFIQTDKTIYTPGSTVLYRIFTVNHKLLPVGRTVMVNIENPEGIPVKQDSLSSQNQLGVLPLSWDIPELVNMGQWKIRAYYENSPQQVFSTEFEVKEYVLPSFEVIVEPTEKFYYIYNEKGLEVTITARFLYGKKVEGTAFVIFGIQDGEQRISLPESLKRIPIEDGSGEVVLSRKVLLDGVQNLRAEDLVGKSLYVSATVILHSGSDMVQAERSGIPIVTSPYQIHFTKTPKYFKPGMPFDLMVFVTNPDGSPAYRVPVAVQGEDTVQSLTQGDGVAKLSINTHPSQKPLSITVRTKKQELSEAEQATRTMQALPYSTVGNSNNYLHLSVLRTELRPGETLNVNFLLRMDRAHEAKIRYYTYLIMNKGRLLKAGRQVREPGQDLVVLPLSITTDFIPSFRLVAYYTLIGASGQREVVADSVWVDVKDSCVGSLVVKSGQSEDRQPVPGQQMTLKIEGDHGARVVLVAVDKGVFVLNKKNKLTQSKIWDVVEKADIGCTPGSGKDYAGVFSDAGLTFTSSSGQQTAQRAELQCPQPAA
T1 sequence (P01024 749-1663, chain 2 of 2): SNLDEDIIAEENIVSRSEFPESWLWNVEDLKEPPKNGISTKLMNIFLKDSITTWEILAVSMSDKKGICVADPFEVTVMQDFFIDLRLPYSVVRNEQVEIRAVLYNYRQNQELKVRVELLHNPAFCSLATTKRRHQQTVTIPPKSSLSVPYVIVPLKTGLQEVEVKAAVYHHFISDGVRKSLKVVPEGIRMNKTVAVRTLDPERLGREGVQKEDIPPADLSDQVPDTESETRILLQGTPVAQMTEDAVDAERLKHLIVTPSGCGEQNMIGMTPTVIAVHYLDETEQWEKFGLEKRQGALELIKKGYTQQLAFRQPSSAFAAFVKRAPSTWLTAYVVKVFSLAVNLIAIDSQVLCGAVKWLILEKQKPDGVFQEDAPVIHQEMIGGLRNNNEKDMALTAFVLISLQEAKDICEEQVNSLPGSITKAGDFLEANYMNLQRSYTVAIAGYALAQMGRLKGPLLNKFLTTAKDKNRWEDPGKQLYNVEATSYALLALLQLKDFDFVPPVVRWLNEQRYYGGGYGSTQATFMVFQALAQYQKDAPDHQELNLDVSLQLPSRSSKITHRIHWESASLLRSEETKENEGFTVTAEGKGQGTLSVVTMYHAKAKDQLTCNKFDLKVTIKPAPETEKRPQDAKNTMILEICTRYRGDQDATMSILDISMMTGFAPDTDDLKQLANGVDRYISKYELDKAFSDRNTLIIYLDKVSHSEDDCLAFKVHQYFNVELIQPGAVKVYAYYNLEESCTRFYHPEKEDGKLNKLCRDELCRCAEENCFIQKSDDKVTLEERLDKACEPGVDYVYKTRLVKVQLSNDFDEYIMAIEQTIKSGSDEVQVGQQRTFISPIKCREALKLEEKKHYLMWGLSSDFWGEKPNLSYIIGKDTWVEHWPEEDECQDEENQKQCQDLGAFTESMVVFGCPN
Experiment: SPR (Biacore T100), C3b captured by anti-C3d antibody, IgG as analyte, 1:1 model
attribute_measured: koff (s⁻¹)

{"binder": "MOR09609 IgG (antibody, V domains shown, Germlined human IgG1 with leucines 234 and 235 changed to alanines, kappa; also called antibody 9609) VH: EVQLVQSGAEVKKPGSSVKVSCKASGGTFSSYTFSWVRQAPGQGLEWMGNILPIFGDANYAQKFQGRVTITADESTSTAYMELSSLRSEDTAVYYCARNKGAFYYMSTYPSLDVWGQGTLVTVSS VL: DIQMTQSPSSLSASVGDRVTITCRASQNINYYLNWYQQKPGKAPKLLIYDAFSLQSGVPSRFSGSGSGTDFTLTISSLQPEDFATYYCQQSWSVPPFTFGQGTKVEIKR", "test_value": "3.16e-06"}
{"binder": "MOR09556 IgG (antibody, V domains shown, Germlined human IgG1 with leucines 234 and 235 changed to alanines, kappa; also called antibody 9556) VH: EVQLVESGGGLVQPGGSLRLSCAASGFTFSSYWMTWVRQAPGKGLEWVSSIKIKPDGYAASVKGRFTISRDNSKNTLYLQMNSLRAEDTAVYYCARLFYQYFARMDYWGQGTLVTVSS VL: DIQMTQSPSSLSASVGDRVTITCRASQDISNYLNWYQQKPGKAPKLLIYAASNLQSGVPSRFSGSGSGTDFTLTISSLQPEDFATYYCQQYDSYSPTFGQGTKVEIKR", "test_value": "3.21e-07"}
{"binder": "MOR09611 IgG (antibody, V domains shown, Germlined human IgG1 with leucines 234 and 235 changed to alanines, kappa; also called antibody 9611) VH: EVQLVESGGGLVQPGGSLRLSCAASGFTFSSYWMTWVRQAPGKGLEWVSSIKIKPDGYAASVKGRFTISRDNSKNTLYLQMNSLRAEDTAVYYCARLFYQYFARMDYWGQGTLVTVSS VL: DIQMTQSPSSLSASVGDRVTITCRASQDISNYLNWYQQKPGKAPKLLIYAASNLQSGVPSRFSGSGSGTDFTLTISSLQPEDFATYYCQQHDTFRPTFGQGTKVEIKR", "test_value": "3.1e-06"}
{"binder": "MOR09612 IgG (antibody, V domains shown, Germlined human IgG1 with leucines 234 and 235 changed to alanines, kappa; also called antibody 9612) VH: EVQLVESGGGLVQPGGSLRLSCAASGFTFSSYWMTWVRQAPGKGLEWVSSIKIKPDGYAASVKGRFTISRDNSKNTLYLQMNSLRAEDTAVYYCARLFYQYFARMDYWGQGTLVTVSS VL: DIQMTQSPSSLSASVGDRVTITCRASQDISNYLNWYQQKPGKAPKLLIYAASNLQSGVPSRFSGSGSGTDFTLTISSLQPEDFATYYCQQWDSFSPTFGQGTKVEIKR", "test_value": "9.04e-06"}
